# Protocol Notes: Drug level in Beagle dog thymus at 5 mg/kg, sc after 6 months
# Assay type: ADME, organism-based, Canis lupus familiaris
# Design: dose 5 mg/kg, route subcutaneous
# Experimental Setup: read-out: Drug uptake
Property Measured: concentration at 4383 h
Number plus unit, in that order.

Quick one: concentration at 4383 h of Cc1cc(/C=C/C#N)cc(C)c1Nc1ccnc(Nc2ccc(C#N)cc2)n1 ? 20.2 ng/g

====

# Protocol Notes: Drug level in Beagle dog lymph node mandibular at 5 mg/kg, sc after 3 months
# Format: ADME, organism-based, Canis lupus familiaris
# Design: dose 5 mg/kg, route subcutaneous
# Experimental Setup: read-out: Drug uptake
Property Measured: concentration at 2191.5 h (ng/g)
One number for each entry, in ng/g.

Can you look up the measured concentration at 2191.5 h of Cc1cc(/C=C/C#N)cc(C)c1Nc1ccnc(Nc2ccc(C#N)cc2)n1 for me? 13.1

====

# Protocol Notes: Drug level in Beagle dog liver at 5 mg/kg, sc after 3 months
# Type: ADME, organism-based, Canis lupus familiaris
# Set-up: dose 5 mg/kg, route subcutaneous
# Experimental Setup: read-out: Drug uptake
Property Measured: concentration at 2191.5 h (ng/g)
Numbers only, in ng/g.

I have this compound here, Cc1cc(/C=C/C#N)cc(C)c1Nc1ccnc(Nc2ccc(C#N)cc2)n1 , and I need its recorded concentration at 2191.5 h. 45.6

====

# Protocol Notes: Drug level in Beagle dog lymph node mandibular at 5 mg/kg, sc after 6 months
# Type: ADME, organism-based, Canis lupus familiaris
# Set-up: dose 5 mg/kg, route subcutaneous
# Experimental Setup: read-out: Drug uptake
Property Measured: concentration at 4383 h (ng/g)
Answers are plain numbers, in ng/g.

Need concentration at 4383 h of Cc1cc(/C=C/C#N)cc(C)c1Nc1ccnc(Nc2ccc(C#N)cc2)n1 [RILPIVIRINE] , thanks. 7.8

====

# Protocol Notes: Drug level in female Beagle dog spleen at 200 mg/kg administered intramuscularly after 1 month
# Type: ADME, organism-based, Canis lupus familiaris
# Parameters: dose 200 mg/kg, route intramuscular
# Experimental Setup: im, read-out: Drug uptake
Property Measured: concentration at 730.5 h
Reply with the number, then its unit.

# lookup: concentration at 730.5 h of Cc1cc(/C=C/C#N)cc(C)c1Nc1ccnc(Nc2ccc(C#N)cc2)n1 [RILPIVIRINE] 142 ng/g

====

# Protocol Notes: Tmax in female dog at 400 mg administered intramuscularly after 29 days
# Experimental Setup: in vivo, im
Property Measured: Tmax (h)
Numbers only, in h.

Fill in the blank: the reported Tmax of Cc1cc(/C=C/C#N)cc(C)c1Nc1ccnc(Nc2ccc(C#N)cc2)n1 [RILPIVIRINE] is ____. 8.3

====

# Protocol Notes: Drug level in Beagle dog lymph node iliac at 5 mg/kg, sc after 1 month
# Type: ADME, organism-based, Canis lupus familiaris
# Parameters: dose 5 mg/kg, route subcutaneous
# Experimental Setup: read-out: Drug uptake
Property Measured: concentration at 730.5 h (ng/g)
Answers are plain numbers, in ng/g.

Need concentration at 730.5 h of Cc1cc(/C=C/C#N)cc(C)c1Nc1ccnc(Nc2ccc(C#N)cc2)n1 , thanks. 64.9

====

# Protocol Notes: Drug level in Beagle dog skin at non-injected site at 5 mg/kg administered intramuscularly after 3 months
# Type: ADME, organism-based, Canis lupus familiaris, Zone of skin
# Design: dose 5 mg/kg, route intramuscular
# Experimental Setup: im, read-out: Drug uptake
Property Measured: concentration at 2191.5 h (ng/g)
Give bare numbers, in ng/g.

What concentration at 2191.5 h value was documented for this compound, Cc1cc(/C=C/C#N)cc(C)c1Nc1ccnc(Nc2ccc(C#N)cc2)n1 [RILPIVIRINE] ? 12.4
